The compounds listed here are annotated with their IC50.
target_or_system: Phospho-EGFR (Tyr1068) in H1975 cells (Homo sapiens, UniProt P00533, L858R/T790M)
Sequence (P00533 25-1210 T790M/L858R): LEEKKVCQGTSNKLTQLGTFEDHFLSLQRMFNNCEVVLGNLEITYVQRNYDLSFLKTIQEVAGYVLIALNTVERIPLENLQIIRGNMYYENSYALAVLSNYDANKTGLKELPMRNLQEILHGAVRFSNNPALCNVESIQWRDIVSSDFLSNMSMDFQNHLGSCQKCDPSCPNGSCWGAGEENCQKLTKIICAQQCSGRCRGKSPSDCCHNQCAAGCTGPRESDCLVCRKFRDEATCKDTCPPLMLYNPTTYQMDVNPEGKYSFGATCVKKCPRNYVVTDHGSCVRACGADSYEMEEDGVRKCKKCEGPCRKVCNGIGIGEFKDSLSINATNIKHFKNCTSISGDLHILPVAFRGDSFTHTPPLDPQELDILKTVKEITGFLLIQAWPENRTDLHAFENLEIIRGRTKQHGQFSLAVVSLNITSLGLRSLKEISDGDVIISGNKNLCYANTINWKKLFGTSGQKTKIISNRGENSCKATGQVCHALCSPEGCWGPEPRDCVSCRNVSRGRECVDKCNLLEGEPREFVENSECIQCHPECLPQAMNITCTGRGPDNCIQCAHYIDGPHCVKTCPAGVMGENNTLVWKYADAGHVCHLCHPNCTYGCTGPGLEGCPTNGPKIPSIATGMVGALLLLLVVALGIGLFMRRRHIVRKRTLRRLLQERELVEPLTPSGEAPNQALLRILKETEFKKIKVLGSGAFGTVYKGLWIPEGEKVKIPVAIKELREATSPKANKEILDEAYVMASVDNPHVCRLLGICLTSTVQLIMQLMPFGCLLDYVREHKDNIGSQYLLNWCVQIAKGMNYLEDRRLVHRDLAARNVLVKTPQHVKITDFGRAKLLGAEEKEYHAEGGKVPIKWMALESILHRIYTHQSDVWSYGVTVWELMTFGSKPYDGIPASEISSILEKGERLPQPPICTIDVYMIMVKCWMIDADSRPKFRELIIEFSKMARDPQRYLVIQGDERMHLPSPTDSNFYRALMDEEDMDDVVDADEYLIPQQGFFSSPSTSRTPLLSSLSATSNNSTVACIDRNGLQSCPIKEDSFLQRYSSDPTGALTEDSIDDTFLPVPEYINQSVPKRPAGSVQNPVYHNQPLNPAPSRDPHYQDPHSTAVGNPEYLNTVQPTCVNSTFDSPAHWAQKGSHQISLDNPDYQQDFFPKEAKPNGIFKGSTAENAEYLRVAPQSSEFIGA
protocol_notes: HTRF pEGFR/total EGFR in H1975 cells
condition_description: ratio pEGFR/total EGFR, compound 3 hours

{"compound": "C#Cc1cc(=O)n([C@H]2CC[C@@H](NC(=O)CCCN(C)C)CC2)c2nc(Nc3ccc(N4CCN(C)CC4)cc3)ncc12 [Example 97]", "IC50": "1000 to 3000 nM"}
{"compound": "C#Cc1cc(=O)n(CC2CCCO2)c2nc(Nc3ccc(N4CCN(C)CC4)cc3)ncc12 (centres unmarked) [Example 72]", "IC50": "500 to 1000 nM"}
{"compound": "C#Cc1cc(=O)n(-c2ccccc2)c2nc(Nc3ccc(N(C)CCCN(C)C)cc3)ncc12 [Example 9]", "IC50": "< 500 nM"}
{"compound": "C#Cc1cc(=O)n(C2CCCC2)c2nc(Nc3ccc(N4CCN(C)CC4)cc3)ncc12 [Example 78]", "IC50": "< 500 nM"}
{"compound": "C#Cc1cc(=O)n(C2CCCC2O)c2nc(Nc3ccc(N4CCN(C)CC4)cc3)ncc12 (centres unmarked) [Example 73]", "IC50": "500 to 1000 nM"}
{"compound": "C#Cc1c(C2CC2)c(=O)n(C)c2nc(Nc3ccc(N4CCN(C)CC4)cc3)ncc12 [Example 148]", "IC50": "> 3000 nM"}
{"compound": "C#Cc1cc(=O)n(C2CCNC2)c2nc(Nc3ccc(N4CCN(C)CC4)cc3)ncc12 (centres unmarked) [Example 106]", "IC50": "1000 to 3000 nM"}
{"compound": "C#Cc1cc(=O)n([C@H]2CC[C@@H](NC(=O)C(C)C)CC2)c2nc(Nc3ccc(N4CCN(C)CC4)cc3)ncc12 [Example 82]", "IC50": "< 500 nM"}

###

target_or_system: Phospho-EGFR (Tyr1068) in H1975 cells (Homo sapiens, UniProt P00533, L858R/T790M)
protocol_notes: HTRF pEGFR/total EGFR in H1975 cells
condition_description: ratio pEGFR/total EGFR, compound 3 hours
The compounds listed here are annotated with their IC50.

{"compound": "C#Cc1cc(=O)n2c3nc(ncc13)Nc1ccc(N3CCN(C(C)C)CC3)c(c1)NC(=O)CCC2", "IC50": "< 500 nM"}
{"compound": "C#Cc1cc(=O)n2c3nc(ncc13)Nc1cccc(c1)OC/C=C\\C2", "IC50": "< 500 nM"}
{"compound": "C#Cc1cc(=O)n2c3nc(ncc13)Nc1ccc(N3CCN(C)CC3)c(c1)OCCCCCC2", "IC50": "< 500 nM"}
{"compound": "C#Cc1cc(=O)n2c3nc(ncc13)Nc1ccc(N3CCN(C)CC3)c(c1)OC/C=C\\C2", "IC50": "< 500 nM"}
{"compound": "C#Cc1cc(=O)n(C[C@@H]2CCC(=O)N2)c2nc(Nc3ccc(N4CCN(C)CC4)cc3)ncc12", "IC50": "> 3000 nM"}
{"compound": "C#Cc1cc(=O)n(C)c2nc(Nc3ccc(N4CCN(C)CC4)c(NC(=O)CC4CCCC4)c3)ncc12", "IC50": "< 500 nM"}
{"compound": "C#Cc1cc(=O)n2c3nc(ncc13)Nc1ccc(N3CCN(C)CC3)c(c1)COCCCC2", "IC50": "< 500 nM"}
{"compound": "C#Cc1cc(=O)n2c3nc(ncc13)Nc1cccc(c1)OCCCC2", "IC50": "< 500 nM"}
{"compound": "C#Cc1cc(=O)n(C)c2nc(Nc3ccc(N4CCN(C)CC4)c(OCCCC4CCCC4)c3)ncc12", "IC50": "< 500 nM"}
{"compound": "C#Cc1cc(=O)n(C2CCCC2)c2nc(Nc3cccc4c3CCN(C)C4)ncc12", "IC50": "> 3000 nM"}
{"compound": "C#Cc1cc(=O)n2c3nc(ncc13)Nc1ccc(N3CCN(CCOC)CC3)c(c1)NC(=O)CCC2", "IC50": "< 500 nM"}
{"compound": "C#Cc1cc(=O)n(-c2ccccc2)c2nc(Nc3ccc(N4CCC(N5CC(N(C)C)C5)CC4)cc3)ncc12", "IC50": "< 500 nM"}
{"compound": "C#Cc1cc(=O)n([C@H]2CC[C@@H](NC(=O)CC(=O)O)CC2)c2nc(Nc3ccc(N4CCN(C)CC4)cc3)ncc12", "IC50": "1000 to 3000 nM"}
{"compound": "C#Cc1c(-c2ccccc2Cl)c(=O)n(C)c2nc(Nc3cccc(CO)c3)ncc12", "IC50": "500 to 1000 nM"}
{"compound": "C#Cc1cc(=O)n2c3nc(ncc13)Nc1ccc(N3CCN(C)CC3)c(c1)N(C)C(=O)CCC2", "IC50": "1000 to 3000 nM"}
{"compound": "C#Cc1c(C)c(=O)n(Cc2cnc[nH]2)c2nc(Nc3ccc(N4CCN(C)CC4)cc3)ncc12", "IC50": "1000 to 3000 nM"}
{"compound": "C#Cc1cc(=O)n(C2CCCC2)c2nc(Nc3cccc(CN4CCC(CS(C)(=O)=O)C4)c3)ncc12 (stereo not drawn)", "IC50": "> 3000 nM"}
{"compound": "C#Cc1cc(=O)n(C)c2nc(Nc3ccc(N4CCN(C)CC4)c(OCC4CCCC4)c3)ncc12", "IC50": "< 500 nM"}
{"compound": "C#Cc1cc(=O)n(CC2CCOC2)c2nc(Nc3ccc(N4CCN(C)CC4)cc3)ncc12 (stereo not drawn)", "IC50": "< 500 nM"}
{"compound": "C#Cc1cc(=O)n(C)c2nc(Nc3ccc(N(C)CCN(C)C)c(-c4cnn(C)c4)c3)ncc12", "IC50": "< 500 nM"}
{"compound": "C#Cc1cc(=O)n(C)c2nc(Nc3ccc(N4CCN(C)CC4)c(OC4CCCC4)c3)ncc12", "IC50": "< 500 nM"}
{"compound": "C#Cc1c(C)c(=O)n(-c2ccccc2)c2nc(Nc3ccc(N4CCN(C)CC4)cc3)ncc12", "IC50": "500 to 1000 nM"}
{"compound": "C#Cc1cc(=O)n([C@H]2CC[C@@H](NC(=O)CCN(C)C)CC2)c2nc(Nc3ccc(N4CCN(C)CC4)cc3)ncc12", "IC50": "1000 to 3000 nM"}
{"compound": "C#Cc1cc(=O)n(-c2ccc(OC)cc2OC)c2nc(Nc3ccc(N(C)CCN(C)C)cc3)ncc12", "IC50": "< 500 nM"}
{"compound": "C#Cc1cc(=O)n(C)c2nc(Nc3ccc(N4CCN(C)CC4)c(OC)c3)ncc12", "IC50": "< 500 nM"}
{"compound": "C#Cc1cc(=O)n2c3nc(ncc13)Nc1ccc(N3CCN(C)CC3)c(c1)OC[C@@H]1CC[C@@H](C1)C2", "IC50": "< 500 nM"}
{"compound": "C#Cc1cc(=O)n(C2CNC(=O)C2)c2nc(Nc3ccc(N4CCN(C)CC4)cc3)ncc12 (stereo not drawn)", "IC50": "> 3000 nM"}
{"compound": "C#Cc1cc(=O)n(C2CCOCC2)c2nc(Nc3ccc(N4CCN(C)CC4)cc3)ncc12", "IC50": "< 500 nM"}
{"compound": "C#Cc1cc(=O)n([C@H]2CC[C@@H](NC(=O)CCC(=O)N(C)C)CC2)c2nc(Nc3ccc(N4CCN(C)CC4)cc3)ncc12", "IC50": "500 to 1000 nM"}
{"compound": "C#Cc1cc(=O)n([C@H]2CC[C@@H](NC(=O)CCC(=O)NC)CC2)c2nc(Nc3ccc(N4CCN(C)CC4)cc3)ncc12", "IC50": "> 3000 nM"}

###

target_or_system: Phospho-EGFR (Tyr1068) in H1975 cells (Homo sapiens, UniProt P00533, L858R/T790M)
protocol_notes: HTRF pEGFR/total EGFR in H1975 cells
condition_description: ratio pEGFR/total EGFR, compound 3 hours
The compounds listed here are annotated with their IC50.
attribute_measured: IC50

{"compound": "C#Cc1cc(=O)n(-c2ccc(N)cc2)c2nc(Nc3ccccc3OC)ncc12 [Example 61]", "attribute_measured": "IC50", "readout_value": "> 3 µM"}
{"compound": "C#Cc1cc(=O)n(-c2ccccc2)c2nc(Nc3ccc(N4CCN(C)CC4)c(CO)c3)ncc12 [Example 31]", "attribute_measured": "IC50", "readout_value": "< 0.5 µM"}
{"compound": "C#Cc1cc(=O)[nH]c2nc(Nc3ccc(N4CCN(C)CC4)c(CNC(=O)C=C)c3)ncc12 [Example 201]", "attribute_measured": "IC50", "readout_value": "< 0.5 µM"}
{"compound": "C#Cc1c(C)c(=O)n2c3nc(ncc13)Nc1ccc(N3CCN(C)CC3)c(c1)OCCCCC2 [Example 229]", "attribute_measured": "IC50", "readout_value": "< 0.5 µM"}
{"compound": "C#Cc1cc(=O)n2c3nc(ncc13)Nc1ccc(N3CCN(C)CC3)c(c1)NC(=O)CCC2 [Example 222]", "attribute_measured": "IC50", "readout_value": "< 0.5 µM"}
{"compound": "C=Cc1c(-c2ccccc2Cl)c(=O)n(C)c2nc(Nc3ccc(N4CCN(C)CC4)cc3OC)ncc12 [Example 170]", "attribute_measured": "IC50", "readout_value": "> 3 µM"}
{"compound": "C#Cc1cc(=O)n(C2CCCC2)c2nc(Nc3ccccc3N3CCCC(CS(C)(=O)=O)C3)ncc12 (stereo not shown) [Example 202]", "attribute_measured": "IC50", "readout_value": "> 3 µM"}
{"compound": "C#Cc1c(C)c(=O)n([C@H]2CC[C@H](NC(C)=O)CC2)c2nc(Nc3ccc(N4CCN(C)CC4)cc3)ncc12 [Example 102]", "attribute_measured": "IC50", "readout_value": "1 to 3 µM"}
{"compound": "C#Cc1cc(=O)n(C)c2nc(Nc3ccc(N4CCN(C)CC4)c(OCCc4ccccc4)c3)ncc12 [Example 214]", "attribute_measured": "IC50", "readout_value": "< 0.5 µM"}
{"compound": "C#Cc1c(C)c(=O)n(Cc2cnco2)c2nc(Nc3ccc(N4CCN(C)CC4)cc3)ncc12 [Example 176]", "attribute_measured": "IC50", "readout_value": "1 to 3 µM"}
{"compound": "C#Cc1cc(=O)n([C@H]2CC[C@@H](N(C)C(=O)CN(C)C)CC2)c2nc(Nc3ccccc3OC)ncc12 [Example 101]", "attribute_measured": "IC50", "readout_value": "> 3 µM"}
{"compound": "C#Cc1cc(=O)n2c3nc(ncc13)Nc1ccc(N3CCCN(C)CC3)c(c1)NC(=O)CCC2 [Example 238]", "attribute_measured": "IC50", "readout_value": "< 0.5 µM"}
{"compound": "C=Cc1c(-c2ccccc2Cl)c(=O)n(C)c2nc(Nc3ccc(N4CCN(C)CC4)cc3OC)ncc12 [Example 171]", "attribute_measured": "IC50", "readout_value": "> 3 µM"}
{"compound": "C=Cc1cc(=O)n(-c2ccc(OC)cc2)c2nc(Nc3ccccc3OC)ncc12 [Example 157]", "attribute_measured": "IC50", "readout_value": "> 3 µM"}
{"compound": "C#Cc1cc(=O)n(-c2ccccc2)c2nc(Nc3ccc(N4CCN(C(C)C)CC4)cc3)ncc12 [Example 16]", "attribute_measured": "IC50", "readout_value": "< 0.5 µM"}
{"compound": "C#Cc1c(C)c(=O)n(Cc2cccnc2)c2nc(Nc3ccc(N4CCN(C)CC4)cc3)ncc12 [Example 116]", "attribute_measured": "IC50", "readout_value": "> 3 µM"}
